test: Plasma protein binding by equilibrium dialysis; type: in vitro ADME, human; conditions: human, pooled human plasma, pH 7.4, equilibrium dialysis 5 h, 37 °C, plasma; read-out: Fraction Unbound (fu)
Measured Endpoint: fraction unbound at 5 h, 10 µg mL^−1

# example entries with known answers
| Compound | fraction unbound at 5 h, 10 µg mL^−1 |
| --- | --- |
| C=CCCCn1cc(C(=O)N[C@H](C(=O)OC)C(C)(C)C)c2ccccc21 [(S)-MDMB-4en-PICA (12)] | 0.035 |
| C=CCCCn1nc(C(=O)N[C@H](C(=O)OC)C(C)(C)C)c2ccccc21 [(S)-MDMB-4en-PINACA (5)] | 0.01 |
| COC(=O)[C@H](NC(=O)c1nn(CCCCCF)c2ccccc12)C(C)(C)C [(R)-5F-MDMB-PINACA (2)] | 0.04 |
| C=CCCCn1nc(C(=O)N[C@@H](C(=O)OC)C(C)(C)C)c2ccccc21 [(R)-MDMB-4en-PINACA (5)] | 0.019 |
| CC(C)[C@H](NC(=O)c1nn(Cc2ccc(F)cc2)c2ccccc12)C(N)=O [(S)-AB-FUBINACA (8)] | 0.021 |

Enquiry: Fill blank: measured fraction unbound at 5 h, 10 µg mL^−1 of the compound COC(=O)[C@@H](NC(=O)c1nn(CCCCF)c2ccccc12)C(C)(C)C [(S)-4F-MDMB-BINACA (4)] is ____.
Return: 0.061

Enquiry: Now the compound COC(=O)[C@@H](NC(=O)c1nn(Cc2ccc(F)cc2)c2ccccc12)C(C)C [(S)-AMB-FUBINACA (1)]
Return: 0.019

Enquiry: Now the compound C=CCCCn1cc(C(=O)N[C@H](C(=O)OC)C(C)C)c2ccccc21 [(S)-AMB-4en-PICA (7)]
Return: 0.053
